protein stability index values by entry
B1: FBF1 (parent)
chain: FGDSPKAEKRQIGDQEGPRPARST

# Variants of: B1
# method.notes: protein stability index of a GFP-peptide fusion (GPS, HEK-293T) (PSI 1-6); higher = more stable;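 further: lentivirally expressed fusions sorted by FACS into six bins by GFP to DsRed ratio, PSI derived from sequencing read proportions per bin multiplied by bin number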
# study.conditions: c terminus: a fixed tail appended
A bare number is all that is needed in reply.

// solved cases for protein stability index follow
mutation.label | protein stability index
P18L | 5.02
G2D | 4.94
R19M | 4.9
T24C | 4.96

Return protein stability index (reported value) for this variant: `D3F`
5.01

Return protein stability index (reported value) for this variant: `Q15M`
5.03

Return protein stability index (reported value) for this variant: `I12N`
5.5

Return protein stability index (reported value) for this variant: `G17R`
5.1

Return protein stability index (reported value) for this variant: `D14E`
5.03

Return protein stability index (reported value) for this variant: `E16I`
4.83
